Every entry's value here was drawn from patent US20040147432A1.

Target: human melanin concentrating hormone type 2 receptor (MCH-2R) (human, UniProt Q969V1 1-340)
Sequence (Q969V1 whole entry, form in doubt): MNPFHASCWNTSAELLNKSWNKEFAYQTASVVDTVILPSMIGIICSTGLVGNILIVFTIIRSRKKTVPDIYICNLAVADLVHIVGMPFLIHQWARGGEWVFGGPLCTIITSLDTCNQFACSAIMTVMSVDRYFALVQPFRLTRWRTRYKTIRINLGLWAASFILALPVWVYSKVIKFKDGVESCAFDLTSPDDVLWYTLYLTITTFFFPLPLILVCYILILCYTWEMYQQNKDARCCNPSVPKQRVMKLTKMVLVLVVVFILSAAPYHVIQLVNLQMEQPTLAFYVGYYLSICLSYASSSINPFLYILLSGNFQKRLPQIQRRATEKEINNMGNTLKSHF
Test: cell-based or functional assay
Bridges are numbered along the chain shown (N, C = ends). [ ]: non-standard residue; d: D form. The star is where a group is joined. Arg(NO2) = N=C(NCCC[C@H](N)C(=O)O)N[N+](=O)[O-]; Pentanoyl(5-guanidino) = NC(N)=NCCCCC(=O)*; dCha = N[C@H](CC1CCCCC1)C(=O)O
measurementKind: EC50 (aequorin functional assay) (nM)

Illustrative cases are given below, each with its answer.
{"binder": "RCMLXRVYRPC (Phg^10 (phenylglycine), also called Phg^10) [SEQ. ID. NO. 12]", "valueUnit": "nM", "EC50 (aequorin functional assay)": 140}
{"binder": "RCMLLRVYRPC (also called Leu^10) [SEQ. ID. NO. 8]", "valueUnit": "nM", "EC50 (aequorin functional assay)": 54}
{"binder": "Ac-RCML[dCha]RVYRPC-NH2 (disulfide 2-11 (inferred), also called D-Cha^10) [SEQ. ID. NO. 16]", "valueUnit": "nM", "EC50 (aequorin functional assay)": 207}
{"binder": "Ac-RCALGRVYRPC-NH2 (disulfide 2-11; SMILES CC(=O)N[C@@H](CCCNC(=N)N)C(=O)N[C@H]1CSSC[C@@H](C(N)=O)NC(=O)[C@@H]2CCCN2C(=O)[C@H](CCCNC(=N)N)NC(=O)[C@H](Cc2ccc(O)cc2)NC(=O)[C@H](C(C)C)NC(=O)[C@H](CCCNC(=N)N)NC(=O)CNC(=O)[C@H](CC(C)C)NC(=O)[C@H](C)NC1=O, also called Ala^8) [SEQ. ID. NO. 4]", "valueUnit": "nM", "EC50 (aequorin functional assay)": 12}
{"binder": "RCXLGRVYRPC (Nle^8 (norleucine), also called Nle^8) [SEQ. ID. NO. 5]", "valueUnit": "nM", "EC50 (aequorin functional assay)": 12}
{"binder": "Ac-CMLGRVYRPC-NH2 (disulfide 1-10; not fully specified, positions numbered as in hMCH; also called ?Arg^6) [SEQ. ID. NO. 3]", "valueUnit": "nM", "EC50 (aequorin functional assay)": 1500}
{"binder": "Ac-RCML[dN]RVYRPC-NH2 (disulfide 2-11 (inferred), also called D-Asn^10) [SEQ. ID. NO. 18]", "valueUnit": "nM", "EC50 (aequorin functional assay)": 24}
{"binder": "RCMLGRVYRXC (Sar^15 (sarcosine)) [SEQ. ID. NO. 32]", "valueUnit": "nM", "EC50 (aequorin functional assay)": 12}

A = [Pentanoyl(5-guanidino)]CML[dA]RVYRPC-NH2 (disulfide 2-11 (inferred); not fully specified, also called (?-NH2)-Arg^6, D-Ala^10) [SEQ. ID. NO. 34]
B = RCMLXRVYRPC (Nle^10 (norleucine)) [SEQ. ID. NO. 9]
C = Ac-RCML[dA][Arg(NO2)]VYRPC-NH2 (disulfide 2-11 (inferred), also called D-Ala^10, Arg(NO2)^11) [SEQ. ID. NO. 37]
D = Ac-RCML[dS]RVYRPC-NH2 (disulfide 2-11 (inferred), also called D-Ser^10) [SEQ. ID. NO. 19]
E = RCALXRVYRPC (not fully specified; D-Ala^10, also called Ala^8, D-Ala^10) [SEQ. ID. NO. 35]
Query block: I would appreciate it if you could sort these 5 binders by EC50 (aequorin functional assay), starting from the smallest number. List labels; respect the requested ordering.
Result block: D, B, A, E, C
